Below: a set of entries, each annotated with reported inhibition.
Test: blockers of RIG-like receptor reporter activation – cell-based, Sendai virus stimulus, luciferase, 10K MLSCN set, TLR/RLR signaling modifier project, primary screen (AID 602276);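 note: firefly luciferase from ISG56 promoter only with Renilla not read in this screen; 0% = Sendai virus plus DMSO and 100% = medium plus DMSO without virus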
Settings: HEK293 RL24 IRF3 luciferase reporter, at 10 µM, stronger effect = higher value
Quick reminder: number only, in %, skip the unit.

Compound	Value Type	Unit Label	Val
Cc1cccc(N(C)C(=O)c2cc3cc4ccc(C)cc4nc3o2)c1	inhibition	%	37.8
Cc1cccc(N(CC(N)=O)S(C)(=O)=O)c1C	inhibition	%	11
CCn1c2ccccc2c2cc(NC(=O)CSc3nnc(C4CC4)n3Cc3ccco3)ccc21	inhibition	%	12.7
Cc1ccc(S(=O)(=O)N(C)CC(=O)NC2CC(C)(C)NC(C)(C)C2)cc1	inhibition	%	11.7

### Prompt Could you please provide reported inhibition for CCOC(=O)CSc1nnc(CNC(=O)c2ccc(OC)c(OC)c2)n1C ? Thanks!
### Response 4.54

### Prompt Give inhibition for Cc1cc2ncc(C(=O)Nc3ccccc3)c(C)n2n1
### Response 1.55

### Prompt # return recorded inhibition for input CC1CN(S(=O)(=O)c2cccc(C(=O)OCc3cc(=O)oc4cc(O)ccc34)c2)CC(C)O1 (stereo not given)
### Response 23.9

###

Experiment: inhibitors of TNFa-induced NFkB p65 translocation, primary screen, imaging, HUVEC, MLSMR starter and 10KST1 sets (AID 438);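 note: compound added about 3h40 before a 20 min TNFalpha stimulation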;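 for inhibition: signal is the nuclear over cytoplasmic p65 intensity ratio per well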
Conditions: HUVEC TNFa-induced p65 nuclear translocation; at 2 µM, stronger effect = higher value, 0% TNFa-plus-vehicle, 100% no-TNFa wells
Listed next: entries and their corresponding inhibition.
// units = %; emit number, no label

# annotated cases, reported inhibition shown
Molecule	inhibition / %
Cc1ccc(-n2nnnc2SCC(=O)N2CCc3ccccc3C2)cc1	-10.2
Cc1ccc(S(=O)(=O)N(CC(=O)N2CCC(C(N)=O)CC2)c2cccc(C(F)(F)F)c2)cc1	1
CN(C)c1ccc(CNC2CC(C)(C)NC(C)(C)C2)cc1	2.4

### Prompt Return inhibition (reported value) for this molecule: C=CCOc1ccc(C2C(C(=O)c3ccco3)=C(O)C(=O)N2Cc2cccnc2)cc1 (stereo unspecified)
### Response -7.7

### Prompt Name the recorded inhibition of the item Cc1[nH]n2c(=O)cc(Cc3ccccc3)nc2c1C#N in your answer.
### Response -6.7

### Prompt Return value of inhibition for input c1nc(NCC2CCCO2)c2[nH]cnc2n1 (stereo unspecified) , no commentary.
### Response -12.5

### Prompt Give inhibition for the following molecule: Cc1ccc(CNC(=O)CSc2n[nH]c(N)n2)cc1
### Response -7.2

###

Experiment: inhibitors of TNFa-induced NFkB p65 translocation, primary screen, imaging, HUVEC, MLSMR starter and 10KST1 sets (AID 438);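 note: compound added about 3h40 before a 20 min TNFalpha stimulation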
Conditions: HUVEC TNFa-induced p65 nuclear translocation; measured here: nuclei count (cytotoxicity indicator), at 2.08 µM
Where a SMILES comes first, the peptide text is derived from it. The star is where a group is joined. Boc = CC(C)(C)OC(=O)*
Quick rule for you: cell count at 300 or higher means criterion met, lower means criterion not met.

Compound	Category
Cc1noc(C)c1COc1cccc(C(=O)Oc2ccc3c(c2)OCO3)c1	criterion met
O=C(NCc1ccco1)c1cc2n(n1)C(C(F)(F)F)CC(c1ccc(F)cc1)N2 (stereo not given)	criterion met
CCSc1ncc(C#N)c(=O)[nH]1	criterion met
CC(C)CC(NC(=O)OC(C)(C)C)C(=O)NC(C(=O)NC(C)C(N)=O)C(C)C (stereo not drawn) (Boc-Leu-Val-Ala-NH2; configuration not given here)	criterion met
CC1CC(=O)C2=C(C1)OC(N)=C(C#N)C2c1coc2ccccc2c1=O (stereo not given)	criterion not met

### Prompt Decide: cell count of CC(C)(C)C1=C[C@@H](CO)C[C@@H](CO)C1 >= 300?
### Response criterion met

### Prompt Would you say COc1ccc(C(F)(F)F)cc1NC(=O)c1nc2nc(C)cc(C(F)F)n2n1 shows cell count at minimum 300?
### Response criterion met

### Prompt Does cell count meet or surpass 300 for CCOC(=O)C1=C(C)Nc2ncnn2C1c1cc(OC)ccc1OC (stereo not given) ?
### Response criterion met

### Prompt Dear colleague, could you confirm whether CCCCCn1c(=O)[nH]c2cc(C(=O)NCCCN3CCCCC3)ccc2c1=O has cell count at or above 300?
### Response criterion not met

### Prompt Is it the case that C/C(N)=C(\C#N)C(=O)NCCc1ccccn1 has cell count reaching or exceeding 300?
### Response criterion met

###

Experiment: inhibitors of TNFa-induced NFkB p65 translocation, primary screen, imaging, HUVEC, MLSMR starter and 10KST1 sets (AID 438);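 note: compound added about 3h40 before a 20 min TNFalpha stimulation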
Settings: HUVEC TNFa-induced p65 nuclear translocation; at 2 µM, 0% TNFa-plus-vehicle, 100% no-TNFa wells
Calls of active or inactive are those of the source.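 Rule for the calls: active = inhibition above 20% together with a positive visual image hit; inconclusive = visual image hit but inhibition not above 20%; inactive = no visual image hit.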
Give one outcome, nothing more. List: active, inactive

Compound	Category
O=C(c1nc2n(n1)C(c1ccc(Cl)cc1)C=C(c1ccccc1)N2)N1CCOCC1 (stereo not drawn)	inactive
CC(Oc1ccc(Cl)cc1Cl)c1nc(-c2ccc(NC(=O)c3cccnc3)cc2)no1 (stereo not drawn)	inactive
O=C(Nc1ccc2nn(-c3ccccc3)nc2c1)c1ccc(Br)o1	inactive

### Prompt Hey, what did the test say about C=CCn1c(COc2ccccc2F)nnc1SCC(=O)N1CC(=O)Nc2ccccc21 ?
### Response inactive

### Prompt How did this test come out for CCOc1ccc(S(=O)(=O)Nc2ccccc2C(=O)Nc2ccccc2N2CCOCC2)cc1 ?
### Response inactive

### Prompt Hello, I am checking results. What call was entered for O=C(CN1CCCN(S(=O)(=O)c2ccc(Br)cc2)CC1)Nc1ccc2cn[nH]c2c1 ?
### Response inactive

###

Biological target: Voltage-gated potassium channel subunit beta-2 (Rattus norvegicus)
Assay: inhibitors of rat Kvbeta2 reductase activity – biochemical, NADPH fluorescence, primary screen (AID 622);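 note: slope of raw intensity against log time taken from 70 to 1610 s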
Conditions: recombinant KvBeta, 4-cyanobenzaldehyde reduction, at 10 µM, stronger effect = higher value
Value Type: fluorescence slope
# print the numeric value only

### Prompt Indicate its recorded fluorescence slope; the compound in question is CCOC(=O)CSc1nnc(CNC(=O)c2cccs2)n1-c1cc(OC)ccc1OC
### Response -0.545

### Prompt Tell me measured fluorescence slope for CCN(CC(=O)NC(=O)NCc1ccco1)Cc1nc2ccccc2c(=O)[nH]1 please.
### Response -0.561

### Prompt Return reported fluorescence slope. Input compound: O=C(c1ccco1)N1CCN(C(=O)c2ccc(Cn3cc(Br)cn3)o2)CC1
### Response -0.456

### Prompt Please supply the value of reported fluorescence slope for the item O=C(c1ccc(-c2cccc(C(F)(F)F)c2)o1)N1CCOCC1
### Response -0.544

### Prompt Provide fluorescence slope value for the following compound: Cc1ccnc(NC(=O)CCC(=O)N(CC(=O)NC2CCCCC2)c2cccc(C)c2C)c1
### Response -0.626

###

Assay: loss of swimming-algae plug formation – whole organism, Chlamydomonas reinhardtii, WT vs cilia-less mutant, absorbance, 96-well, primary screen (AID 463189);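 note: 0% = wild type cc124 cells in DMSO and 100% = ciliumless bld1 mutant cells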
Settings: Chlamydomonas reinhardtii gravitaxis, OD600 absorbance, 2 days; at 10 µM; stronger effect = higher value
The source made the active and inactive calls.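 The calls were made as follows: active = inhibition at or above 50% relative to wild type and mutant plate controls; inactive = inhibition below 50%.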
Value Type: inhibition

Consider the following illustrative entries.
Molecule	inhibition
COC(=O)Nc1nc2ccc(C(=O)c3cccs3)cc2[nH]1	11.2% (inactive)
O=C(O)Cc1ccc(O)c(O)c1	5.56% (inactive)
C=C1C(=O)O[C@@H]2[C@H]3O[C@]3(C)CCC=C(C)CC[C@@H]12	4.91% (inactive)

### Prompt Identify inhibition associated with the molecule C[C@](N)(Cc1ccc(O)c(O)c1)C(=O)O
### Response 5.26% (inactive)

### Prompt Assign inhibition to the following record: O=C1NC(O)=NC1(c1ccccc1)c1ccccc1
### Response -1.32% (inactive)

### Prompt Answer with the recorded inhibition for the molecule listed here: COc1cc(CNC(=O)CCCCCCC(C)C)ccc1O
### Response -1.4% (inactive)

### Prompt Consider the molecule Nc1ncnc2c1ncn2C1CCCC1 . State its measured inhibition.
### Response -2.12% (inactive)

### Prompt Given COc1cc2nc(N3CC=[N+](C(=O)c4ccco4)CC3)nc(N)c2cc1OC , respond with its inhibition.
### Response 6.38% (inactive)

### Prompt Output inhibition of O=Nc1c(-c2c(O)[nH]c3ccccc23)[nH]c2ccccc12
### Response 1.78% (inactive)

### Prompt Provide inhibition value for the following molecule: CC(=O)O[C@]1(C(C)=O)CC[C@H]2[C@@H]3C=C(Cl)C4=CC(=O)CC[C@]4(C)[C@H]3CC[C@@]21C
### Response 8.01% (inactive)

### Prompt Provide inhibition value for the following molecule: OC(CN1CCC(Cc2ccc(F)cc2)CC1)c1ccc(Cl)cc1 (configuration not stated)
### Response -0.098% (inactive)

### Prompt Please indicate inhibition recorded for CN(C)CCN(Cc1cccs1)c1ccccn1
### Response 2.59% (inactive)
